Reference source: patent US6812232B2

Test system: HeLa S-3 cells
Test: Inhibition of cell growth (SRB), HeLa
Format: cell-based, human
Settings: Table 2, 2 days of treatment, replicate experimental results
Procedure: D. Measuring the Inhibition of Cell Growth. Growth inhibition (GI50) values were measured with HeLa S-3 cells selected for growth on plastic. […] One day later, a control plate was fixed by addition of TCA to 5%. After five rinses with tap water the plate was air dried and stored at 4° C. Test compounds were added to the remaining plates at 10-fold dilutions between 0.01 and 100 μM. […] Dye was quantified by measuring absorbance at 490 nm on a Molecular Devices kinetic microplate reader. […]
Result type: GI50 (µM)
Express your answer in µM, writing the number without its unit.

# example entries with known answers
Molecule	U	GI50
CC(C)n1cnc2c(NCc3cccc(-c4ccsc4)c3)nc(N[C@H]3CC[C@H](N)CC3)nc21	µM	2
CC(=O)N[C@H]1CC[C@H](Nc2nc(NCc3cccc(-c4ccsc4)c3)c3ncn(C(C)C)c3n2)CC1	µM	3

From here, focus on the item given below.
Record CC(C)n1cnc2c(NCc3ccc(-c4ccccc4)cc3)nc(NC3CCC(NC(=O)C4CC4)CC3)nc21 (centres unmarked) , field GI50: 0.3
